Could you please report measured yeast fitness for the items listed next?
B1: tRNA (parent)
chain: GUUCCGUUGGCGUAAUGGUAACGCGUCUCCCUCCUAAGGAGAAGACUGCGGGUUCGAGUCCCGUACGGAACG

Variants of: B1
Experiment: yeast fitness relative to wild type (ratio to wild type); higher = fitter; tRNA-Arg(CCU), competitive growth, 37 C, YPD
This sample holds only a part of the variants without activity.
Give bare numbers.

Input: I would be grateful if you could share the reported yeast fitness for C4A C33A .
Output: 0.705

Input: For U2A C31A , what is its reported yeast fitness?
Output: 0.815

Input: Recorded yeast fitness of C4A G18A C27A A37C G56A , please.
Output: 0.579

Input: Please look up its yeast fitness: U8C A14G G68A
Output: 0.534

Give yeast fitness for each of the items listed below.
1. U32A A40U G41C C46A G52A
2. C5G A42G U64C
3. G10C A21G

Output:
1: 0.656; 2: 0.72; 3: 0.633

I have 3 variants here; please give me yeast fitness for each one.
1. U8A C62U
2. U16A G51A
3. C5G G56A

Output:
1: 0.7; 2: 0.752; 3: 0.975

Data credit: the RNAGym collection of RNA variant scans (doi:10.1126/science.aae0568)
